# assay.summary: Selectivity index, ratio of cytotoxicity against mammalian cells to IC50 for Trypanosoma cruzi Tulahuen 2
# Type: toxicity, cell-based
# run.parameters: read-out: Selectivity Index
property: selectivity ratio

[
  {
    "smiles.input": "NC(=S)N/N=C/c1ccc(OCc2ccc3no[n+]([O-])c3c2)cc1",
    "quantitative.result": 27
  }
]

* * *

# System: Trypanosoma cruzi
# assay.summary: Antitrypanosomal activity against Trypanosoma cruzi Tulahuen 2
# Format: functional, organism-based

[
  {
    "smiles.input": "NC(=S)N/N=C/c1ccc(OCc2ccc3no[n+]([O-])c3c2)cc1",
    "target.system": "Trypanosoma cruzi",
    "IC50": "15 µM"
  }
]
